System: Human immunodeficiency virus 1
Assay: Antiviral activity against X4 tropic HIV1 pNL4.3-Ren infected in human MT2 cells at 10 uM dosed simultaneously with virus infection measured 48 hrs post-infection by recombinant virus assay
Type: functional
Conditions: Human immunodeficiency virus 1, pNL4.3-Ren, MT2, 48 h; values are per cent of control
Just a reminder that ties go to false (0): only residual activity at 10 µM strictly below 90% counts as true (1).

[
  {
    "COMPOUND": "CC1(C)C=C2[C@H]3C[C@@H](O)[C@@H]4[C@@]5(C)CC[C@H](O)C(C)(C)[C@@H]5CC[C@@]4(C)[C@]3(C)CC[C@@]2(C)CC1 [NIVADIOL]",
    "ANSWER LABEL": "false (0)"
  },
  {
    "COMPOUND": "CC1(C)[C@@H](O)CC[C@]2(C)[C@H]3CC[C@@H]4C5=C[C@](C)(CO)CC[C@]5(C)CC[C@@]4(C)[C@]3(C)CC[C@@H]12",
    "ANSWER LABEL": "true (1)"
  },
  {
    "COMPOUND": "CC1(C)C=C2[C@H]3CC[C@@H]4[C@@]5(C)CCC(=O)C(C)(C)[C@@H]5CC[C@@]4(C)[C@]3(C)CC[C@@]2(C)CC1=O",
    "ANSWER LABEL": "true (1)"
  },
  {
    "COMPOUND": "CC1(C)C(=O)CC[C@]2(C)[C@H]3CC[C@@H]4C5=C[C@](C)(CO)CC[C@]5(C)CC[C@@]4(C)[C@]3(C)CC[C@@H]12",
    "ANSWER LABEL": "true (1)"
  },
  {
    "COMPOUND": "CC1(C)C=C2[C@H]3CC[C@@H]4[C@@]5(C)CC[C@H](O)C(C)(C)[C@@H]5CC[C@@]4(C)[C@]3(C)CC[C@@]2(C)CC1 [GERMANICOL]",
    "ANSWER LABEL": "true (1)"
  },
  {
    "COMPOUND": "CC(=O)OC[C@@]1(C)C=C2[C@H]3CC[C@@H]4[C@@]5(C)CCC(=O)C(C)(C)[C@@H]5CC[C@@]4(C)[C@]3(C)CC[C@@]2(C)CC1",
    "ANSWER LABEL": "false (0)"
  }
]

Cited source: ChEMBL document CHEMBL2021887
